Reference source for all entries: patent US11878965B2

Biological target: human PAD4 (Homo sapiens (Human), UniProt Q9UM07)
Sequence (Q9UM07 2-663): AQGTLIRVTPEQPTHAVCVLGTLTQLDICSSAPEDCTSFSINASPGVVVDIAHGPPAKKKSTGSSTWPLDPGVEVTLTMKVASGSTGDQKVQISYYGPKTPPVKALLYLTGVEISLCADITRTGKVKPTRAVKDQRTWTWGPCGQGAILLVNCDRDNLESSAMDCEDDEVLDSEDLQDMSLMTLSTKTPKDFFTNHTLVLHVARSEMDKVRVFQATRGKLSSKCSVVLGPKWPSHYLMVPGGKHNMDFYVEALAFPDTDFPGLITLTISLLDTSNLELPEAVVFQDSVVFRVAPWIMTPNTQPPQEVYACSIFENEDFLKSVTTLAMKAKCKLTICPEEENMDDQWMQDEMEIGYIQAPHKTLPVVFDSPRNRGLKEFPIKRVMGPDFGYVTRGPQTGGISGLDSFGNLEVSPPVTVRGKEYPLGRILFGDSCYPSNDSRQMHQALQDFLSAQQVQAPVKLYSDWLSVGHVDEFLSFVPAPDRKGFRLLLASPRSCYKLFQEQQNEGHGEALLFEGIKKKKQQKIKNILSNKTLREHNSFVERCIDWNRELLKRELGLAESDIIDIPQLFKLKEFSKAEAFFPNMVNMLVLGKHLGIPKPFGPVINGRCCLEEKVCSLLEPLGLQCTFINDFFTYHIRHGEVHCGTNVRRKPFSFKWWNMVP
Test: In Vitro PAD4 BAEE Biochemical Assay
Conditions: human PAD4, BAEE substrate; 5 nM PAD4, 2 mM calcium chloride, 3 mM BAEE; geometric mean of multiple experiments
pIC50: −log10 of the molar value.
ASSAY_ENDPOINT: pIC50

Guide cases for pIC50, answers given:
COMPOUND: COc1cc(C(=O)N2C[C@H](N)CCN2C)cc2nc(-c3cc4ccc([C@@H](C)NC(=O)c5cccnc5C)nc4n3CC3CC3)n(C)c12
OBSERVED_RESULT: 7.04
--
COMPOUND: COc1cc(C(=O)N2[C@H]3CC[C@@H]2[C@H](N)C3)cc2nc(-c3cc4ccc([C@@H](C)NC(=O)c5cnn(C(F)F)c5)cc4n3CC3CC3)n(C)c12
OBSERVED_RESULT: 7.54

1 = COc1cc(C(=O)N2CCC[C@@H](N)C2)cc2nc(-c3cc4ccc(N(c5ccccc5)S(C)(=O)=O)nc4n3CC3CC3)n(C)c12
2 = Cc1cc2c(cc1C(=O)N1C[C@H]3CC[C@@H]1[C@@H]3N)nc(-c1cc3ccc(N(C(F)F)S(C)(=O)=O)nc3n1CC1CC1)n2C1CC1
Prompt: Of 1 and 2 , which carries the smaller reported pIC50 figure? Please respond with the label that marks your chosen entry.
Completion: 2

----------
Molecular target: human PAD4 (Homo sapiens (Human))
Experiment: In Vitro PAD4 BAEE Biochemical Assay
Conditions: recombinant PAD4 5 nM, 2 mM calcium chloride, 3 mM BAEE substrate; geometric mean of multiple experiments
ASSAY_ENDPOINT: IC50 (nM)

COMPOUND: COc1cc(C(=O)N2C[C@H](N)[C@@H]3CC[C@H]2C3)cc2nc(-c3cc4ccc([C@@H](C)NC(=O)c5ccnc(C(F)F)c5)nc4n3CC3CC3)n(C)c12
TEST_SYSTEM: human PAD4 (Homo sapiens (Human))
ASSAY_ENDPOINT: IC50
OBSERVED_RESULT: 74.1

a = COc1cc(C(=O)N2C[C@H](N)[C@@H]3CC[C@H]2C3)cc2nc(-c3cc4ccc([C@@H](C)NC(=O)C(C)(C)CC(F)(F)F)nc4n3CC3CC3)n(C)c12
b = COc1cc(C(=O)N2C[C@H](N)[C@@H]3CC[C@H]2C3)cc2nc(-c3cc4ccc([C@@H](C)NC(=O)C5(C(F)F)CC5)nc4n3CC3CC3)n(C)c12
Prompt: Compare a and b and name the one whose reported IC50 is smaller. Field: selected label. Fill in the label of the entry you choose.
Completion: b

P = COc1cc(C(=O)N2C[C@H](N)[C@@H]3CC[C@H]2C3)cc2nc(-c3cc4ccc([C@@H](C)NC(=O)c5ccc(C(C)(C)O)nc5)nc4n3CC3CC3)n(C)c12
Q = COc1cc(C(=O)N2C[C@H](N)[C@@H]3CC[C@H]2C3)cc2nc(-c3cc4ccc([C@@H](C)NC(=O)c5cccc(C(F)F)n5)nc4n3CC3CC3)n(C)c12
R = COc1cc(C(=O)N2C[C@H](N)[C@@H]3CC[C@H]2C3)cc2nc(-c3cc4ccc([C@@H](C)NC(=O)C(C)(C)C)nc4n3CC(C)(C)O)n(C)c12
S = COc1cc(C(=O)N2C[C@H](N)[C@@H]3CC[C@H]2C3)cc2nc(-c3cc4ccc([C@@H](C)NC(=O)c5ccc(C(F)(F)F)nc5)nc4n3CC3CC3)n(C)c12
Prompt: Rank ascending by IC50. Give the labels in the order requested.
Completion: P, S, R, Q
(P: 72 nM, S: 113 nM, R: 253 nM, Q: 382 nM)

1 = COc1cc(C(=O)N2C[C@H](N)[C@@H]3CC[C@H]2C3)cc2nc(-c3cc4ccc([C@@H](C)NC(=O)C56C7C8C9C7C5C9C86)nc4n3CC3CC3)n(C)c12 (some centres unmarked)
2 = COc1cc(C(=O)N2C[C@H](N)[C@@H]3CC[C@H]2C3)cc2nc(-c3cc4ccc([C@@H](C)NC(=O)c5ccccc5OC(F)(F)F)nc4n3CC3CC3)n(C)c12
Prompt: Could you point out whether the larger IC50 belongs to 1 or to 2 ? Refer to your chosen item by its label in the answer.
Completion: 2

A = COc1cc(C(=O)N2C[C@H](N)[C@@H]3CC[C@H]2C3)cc2nc(-c3cc4ccc([C@@H](C)NC(=O)[C@@H]5CC5(F)F)nc4n3CC3CC3)n(C)c12
B = COc1cc(C(=O)N2C[C@H](N)[C@@H]3CC[C@H]2C3)cc2nc(-c3cc4ccc([C@@H](C)NC(=O)C5(C)CC(F)(F)C5)nc4n3CC3CC3)n(C)c12
Prompt: Field: entry with larger IC50 (options A / B ). Refer to your chosen item by its label in the answer.
Completion: B
(B: 101 nM, A: 67.6 nM)

1 = C[C@@H](NC(=O)C1(C#N)CC1)c1ccc2cc(-c3nc4cc(C(=O)N5C[C@H](N)[C@@H]6CC[C@H]5C6)cc(F)c4n3C3CC3)n(CC3CC3)c2n1
2 = COc1cc(C(=O)N2C[C@H](N)[C@@H]3CC[C@H]2C3)cc2nc(-c3cc4ccc([C@@H](C)NC(=O)[C@H]5CC5(F)F)nc4n3CC3CC3)n(C)c12
Prompt: Which numeric IC50 is bigger, that of 1 or that of 2 ? I would appreciate it if you answered with the label of your choice.
Completion: 1
(1: 84.1 nM, 2: 55.9 nM)

----------
Target: human PAD4 (Homo sapiens (Human))
Assay: In Vitro PAD4 BAEE Biochemical Assay
Details: human PAD4, BAEE substrate; 5 nM PAD4, 2 mM calcium chloride, 3 mM BAEE; geometric mean of multiple experiments
pIC50: −log10 of the molar value.
ASSAY_ENDPOINT: pIC50

Known results for molecules:
MOLECULE: C[C@@H](NC(=O)[C@H]1CC1(F)F)c1ccc2cc(-c3nc4cc(C(=O)N5C[C@H](N)[C@@H]6CC[C@H]5C6)cc(F)c4n3C3CC3)n(CC3CC3)c2n1 [Example 227]
pIC50: 7.33

MOLECULE: COc1cc(C(=O)N2CCC[C@@H](N)C2)cc2nc(-c3cc4ccc([C@@H](C)NC(=O)C56CC(F)(C5)C6)nc4n3CC3CC3)n(C3CC3)c12 [Example 125]
pIC50: 7.15

A = CCN(c1ccc2cc(-c3nc4cc(C(=O)N5CCC[C@@H](N)[C@H]5C)cc(OC)c4n3CC3(C)CC3)n(CC3CC3)c2n1)S(C)(=O)=O [Example 40]
B = COc1cc(C(=O)N2C[C@H](N)CCN2C)cc2nc(-c3cc4ccc([C@@H](C)NC(=O)C5(c6ccc(C(F)(F)F)cc6)CC5)nc4n3CC3CC3)n(C)c12 [Example 163]
C = COc1cc(C(=O)N2CCC[C@@H](N)C2)cc2nc(-c3cc4ccc([C@@H](C)NC(C)=O)nc4n3CC3CC3)n(C3CC3)c12 [Example 132]
D = COc1cc(C(=O)N2CCC[C@@H](N)C2)cc2nc(-c3cc4ccc(N(CC5CC5)S(C)(=O)=O)nc4n3CC3CC3)n(C)c12 [Example 20]
Prompt: List by increasing pIC50. Kindly provide the labels arranged according to the requested ordering.
Completion: D, B, A, C

----------
Target: human PAD4 (Homo sapiens (Human))
Assay: In Vitro PAD4 BAEE Biochemical Assay
Conditions: human PAD4, BAEE substrate; 5 nM PAD4, 2 mM calcium chloride, 3 mM BAEE; geometric mean of multiple experiments
ASSAY_ENDPOINT: IC50 (nM)

A = COc1cc(C(=O)N2CCC[C@@H](N)[C@H]2C)cc2nc(-c3cc4ccc(N(C(F)F)S(C)(=O)=O)nc4n3CC3CC3)n(C)c12 [Example 33]
B = COc1cc(C(=O)N2CCC[C@@H](N)C2)cc2nc(-c3cc4ccc(N5CCCCS5(=O)=O)nc4n3CC3CC3)n(C)c12 [Example 97]
Prompt: Compare IC50: is it lower for A or for B ? Please respond with the label that marks your chosen entry.
Completion: A
(A: 77.3 nM, B: 159 nM)

A = COc1cc(C(=O)N2C[C@H](N)CCN2C)cc2nc(-c3cc4ccc([C@@H](C)NC(=O)c5cnn(C(F)F)c5)nc4n3CC3CC3)n(C)c12 [Example 170]
B = COc1cc(C(=O)N2CCC[C@@H](N)C2)cc2nc(-c3cc4ccc(N(C5CC5)S(=O)(=O)C5CC5)nc4n3CC3CC3)n(C)c12 [Example 26]
Prompt: Of A and B , whose reported IC50 is numerically smaller? I would appreciate it if you answered with the label of your choice.
Completion: A

a = COc1cc(C(=O)N2C[C@H](N)CCN2C)cc2nc(-c3cc4ccc([C@@H](C)NC(=O)C5(CC(F)F)CC5)nc4n3CC3CC3)n(C)c12 [Example 193]
b = COc1cc(C(=O)N2C[C@H](N)CCN2C)cc2nc(-c3cc4ccc([C@@H](C)NC(=O)C5(C)CC5)nc4n3CC3CC3)n(C)c12 [Example 200]
Prompt: Please indicate which item has the smaller measured IC50: a versus b Your choice should be expressed through its label.
Completion: b
